Please provide measured IC50 for the entries that follow.
# TEST TARGET: acetylcholinesterase (Homo sapiens, UniProt P22303)
# Sequence (P22303 32-614): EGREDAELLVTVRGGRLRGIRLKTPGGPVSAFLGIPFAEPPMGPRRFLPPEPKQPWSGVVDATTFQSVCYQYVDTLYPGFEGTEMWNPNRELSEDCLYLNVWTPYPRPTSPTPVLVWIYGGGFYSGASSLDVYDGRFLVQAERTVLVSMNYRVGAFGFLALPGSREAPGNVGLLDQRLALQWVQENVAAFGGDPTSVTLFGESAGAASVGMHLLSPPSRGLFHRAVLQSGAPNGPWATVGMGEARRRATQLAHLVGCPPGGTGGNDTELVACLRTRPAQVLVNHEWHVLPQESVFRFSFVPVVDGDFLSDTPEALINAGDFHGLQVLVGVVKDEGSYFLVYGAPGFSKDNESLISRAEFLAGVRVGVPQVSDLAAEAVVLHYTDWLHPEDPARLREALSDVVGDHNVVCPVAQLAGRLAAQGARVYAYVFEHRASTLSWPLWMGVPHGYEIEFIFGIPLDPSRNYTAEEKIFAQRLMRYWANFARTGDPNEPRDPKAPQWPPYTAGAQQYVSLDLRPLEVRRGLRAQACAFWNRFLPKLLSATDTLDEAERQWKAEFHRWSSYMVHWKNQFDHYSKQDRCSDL
# ASSAY METHOD TEXT: biochemical
# CONDITION INFO: Acetylcholinesterase Inhibition; read-out: IC50 (molar conc.)
Just the number in µM, nothing appended.

Query: Report IC50 from acetylcholinesterase (Homo sapiens, UniProt P22303) testing of Nc1c2c(nc3ccccc13)CCC(O)C2.O=C(O)/C=C\C(=O)O (stereo not shown) [maleate]
Reply: 5.3

Query: Report IC50 from acetylcholinesterase (Homo sapiens, UniProt P22303) testing of Nc1c2c(nc3ccccc13)C(O)CCC2 (stereo not shown)
Reply: 1.9

Query: Report IC50 from acetylcholinesterase (Homo sapiens, UniProt P22303) testing of CCCCCC(=O)OC1CCc2nc3ccccc3c(N)c2C1.O=C(O)/C=C/C(=O)O (stereo not shown) [fumarate]
Reply: 19

Query: Report IC50 from acetylcholinesterase (Homo sapiens, UniProt P22303) testing of CC(=O)OC1CCc2nc3ccccc3c(N)c2C1 (stereo not shown)
Reply: 6.5

Query: Report IC50 from acetylcholinesterase (Homo sapiens, UniProt P22303) testing of CCCCCCC(=O)OC1CCc2nc3ccccc3c(N)c2C1 (stereo not shown) [fumarate]
Reply: 31

====

# TEST TARGET: acetylcholinesterase (Homo sapiens, UniProt P22303)
# ASSAY METHOD TEXT: biochemical
# Protocol: The ability to inhibit acetylchlinesterase was determined by the photometric method of Ellman et al., Biochem. pharmacol.
READOUT LABEL: log10 IC50 (log10 of the value in µM)
In our notation, the value equals log10 of IC50 in µM.

Query: Specify reported log10 IC50 for the molecule shown: CCCCCCCC(=O)OC1CCc2nc3ccccc3c(N)c2C1 (stereo not shown) [fumarate]
Reply: 1.36

Query: Specify reported log10 IC50 for the molecule shown: Nc1c2c(nc3ccccc13)C(OCc1ccccc1)CCC2 (stereo not shown)
Reply: 2.91

Query: Specify reported log10 IC50 for the molecule shown: CCCC(=O)OC1CCc2nc3ccccc3c(N)c2C1 (stereo not shown) [fumarate]
Reply: 0.68

Query: Specify reported log10 IC50 for the molecule shown: CCCCCCCCCCCC(=O)OC1CCc2nc3ccccc3c(N)c2C1 (stereo not shown)
Reply: 2.20

Query: Specify reported log10 IC50 for the molecule shown: CCCCC(=O)OC1CCc2nc3ccccc3c(N)c2C1 (stereo not shown) [fumarate]
Reply: 1.08

Reference for the values: patent EP0369388B1
